# assay-system: recombinant human mPGES-1 (Homo sapiens, UniProt O14684)
# Construct: made in house; host or cells: Rosetta E. coli (microsomal/membrane fraction)
# Sequence (O14684 whole entry): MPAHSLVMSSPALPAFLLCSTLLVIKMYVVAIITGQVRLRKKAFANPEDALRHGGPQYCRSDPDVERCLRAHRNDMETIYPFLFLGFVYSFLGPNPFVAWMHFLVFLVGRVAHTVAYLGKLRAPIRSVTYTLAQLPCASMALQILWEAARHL
# experiment-summary: mPGES-1 inhibition, HTRF detection of PGE2
# Assay type: biochemical
Quick reference: inhibition at 10 µM of the listed items.
parameter: inhibition at 10 µM (%)

substance-smiles	parameter	reading-unit	meas-value
Cc1ccnc(Br)c1Nc1nc2cc(C(=O)N[C@H]3CC[C@H](C(F)(F)F)CC3)c(OCC(F)F)nc2[nH]1	inhibition at 10 µM	%	98
Cc1cc(C)c(Nc2nc3cc(C(=O)N[C@H]4CC[C@H](C(F)(F)F)CC4)c(OCC(F)F)nc3[nH]2)c(Cl)n1	inhibition at 10 µM	%	94
O=C(N[C@H]1CC[C@H](C(F)(F)F)CC1)c1cc2nc(Nc3c(Cl)cncc3Cl)[nH]c2nc1OCC(F)(F)F	inhibition at 10 µM	%	89
CCCCCCNC(=O)c1cnc2c(c1)nc(Nc1c(Cl)cccc1Cl)n2C	inhibition at 10 µM	%	91
Cn1c(Nc2c(Cl)cc(F)cc2Cl)nc2cc(C(=O)N[C@H]3CC[C@H](C(F)(F)F)CC3)c(OCC(F)F)nc21	inhibition at 10 µM	%	82
COCCOc1nc2[nH]c(Nc3c(Cl)cncc3Cl)nc2cc1C(=O)Nc1ccc(Br)cc1	inhibition at 10 µM	%	96
O=C(Nc1ccc(Cl)c(F)c1)c1cnc2[nH]c(Nc3c(Cl)cccc3Cl)nc2c1	inhibition at 10 µM	%	91
CCCC[C@@H](C)NC(=O)c1cnc2[nH]c(Nc3c(Cl)cccc3Cl)nc2c1	inhibition at 10 µM	%	100
CC1(C)CCC(NC(=O)c2cnc3[nH]c(Nc4c(Cl)cccc4Cl)nc3c2)CC1	inhibition at 10 µM	%	97
O=C(Nc1ccc(Br)cc1)c1cnc2[nH]c(Nc3c(Cl)cccc3Cl)nc2c1	inhibition at 10 µM	%	100
CN(C)CCOc1nc2[nH]c(Nc3c(Cl)cc(F)cc3Cl)nc2cc1C(=O)N[C@H]1CC[C@H](C(F)(F)F)CC1	inhibition at 10 µM	%	91
CC1(C)CCC(NC(=O)c2cnc3c(c2)nc(Nc2c(Cl)cccc2Cl)n3Cc2ccccc2)CC1	inhibition at 10 µM	%	100
O=C(NCc1ncccc1C(F)(F)F)c1cc2nc(Nc3c(Cl)cc(F)cc3Cl)[nH]c2nc1OCC(F)(F)F	inhibition at 10 µM	%	98
COCCOc1nc2c(cc1C(=O)Nc1ccc(Br)cc1)nc(Nc1c(Cl)cncc1Cl)n2C	inhibition at 10 µM	%	97
CCCCCC[C@H](C)NC(=O)c1cnc2c(c1)nc(Nc1c(Cl)cccc1Cl)n2C	inhibition at 10 µM	%	99

====

# assay-system: recombinant human mPGES-1 (Homo sapiens)
# Construct: made in house; host or cells: Rosetta E. coli (microsomal/membrane fraction)
# experiment-summary: mPGES-1 inhibition, HTRF detection of PGE2
# Type: biochemical

molecule	inhibition at 10 µM, %
O=C(Nc1ccc(Br)cc1)c1cc2nc(Nc3c(Cl)cncc3Cl)[nH]c2nc1OCC(F)F	98
CC(C)[C@H]1CC[C@H](NC(=O)c2cnc3c(c2)nc(Nc2c(Cl)cccc2Cl)n3C)CC1	97
Cn1c(Nc2c(Cl)cccc2Cl)nc2cc(C(=O)NC3CCC(C(C)(C)C)CC3)cnc21 (stereo not shown)	99
O=C(NCC(F)(F)C(F)(F)C(F)(F)C(F)(F)F)c1cc2nc(Nc3c(Cl)cncc3Cl)[nH]c2nc1OC1CCOC1 (stereo not shown)	96
Cn1c(Nc2c(Cl)cncc2Cl)nc2cc(C(=O)NCc3ncccc3C(F)(F)F)c(OCC(F)(F)F)nc21	98
Cn1c(Nc2c(Cl)cncc2Cl)nc2cc(C(=O)Nc3cc(C(F)(F)F)ccn3)c(OCCF)nc21	100
O=C(Nc1cc(C(F)(F)F)ccn1)c1cc2nc(Nc3c(Cl)cncc3Cl)[nH]c2nc1OCC(F)F	99
